Value source: patent US8394823B2

assayed_target: recombinant human DGAT1 (Homo sapiens, UniProt O75907)
Sequence (O75907 whole entry): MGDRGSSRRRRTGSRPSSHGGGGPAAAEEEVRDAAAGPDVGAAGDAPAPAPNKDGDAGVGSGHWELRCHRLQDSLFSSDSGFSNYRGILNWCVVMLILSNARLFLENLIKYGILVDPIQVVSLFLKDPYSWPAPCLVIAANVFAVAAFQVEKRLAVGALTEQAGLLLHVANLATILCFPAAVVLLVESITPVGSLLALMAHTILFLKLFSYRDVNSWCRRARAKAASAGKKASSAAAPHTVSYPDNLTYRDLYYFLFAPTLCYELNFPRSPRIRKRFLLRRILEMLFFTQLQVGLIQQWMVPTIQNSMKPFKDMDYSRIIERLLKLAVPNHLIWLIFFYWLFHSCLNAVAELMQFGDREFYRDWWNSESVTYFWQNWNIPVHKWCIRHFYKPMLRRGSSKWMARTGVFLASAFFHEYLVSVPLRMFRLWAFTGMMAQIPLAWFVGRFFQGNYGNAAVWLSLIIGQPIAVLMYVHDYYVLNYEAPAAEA
method_notes: DGAT1 enzyme assay
condition_notes: membranes from Sf9 insect cells expressing recombinant human DGAT1; 25 μM 2-monooleoyl-glycerol, 25 μM [3H]-stearoyl-CoA, pH 7.4, 30 min, 25° C., SPA
Rule: measured IC50 below 500 nM gets Yes; anything equal to or greater than 500 nM gets No.

# compound_structure_string, discrete_label
records = [
    ("CC(C)C[C@@H](Cc1nnc2cc(-c3ccc(Nc4nc5ccc(Cl)cc5s4)cc3)ccn12)C(=O)O", "No"),
    ("COC(=O)[C@H](Cc1nnc2cc(-c3ccc(Nc4nc5ccc(Cl)cc5s4)cc3)ccn12)CC(C)C", "No"),
    ("CCCC[C@H](Cc1nnc2cc(-c3ccc(Nc4nc5ccc(Cl)cc5s4)cc3)ccn12)C(=O)O", "Yes"),
]

Q: State whether 500 nM exceeds IC50 recorded for `CC(C)C[C@H](Cc1nnc2cc(-c3ccc(Nc4nc5ccc(Cl)cc5s4)cc3)ccn12)C(=O)O` .
Ans: Yes

Q: State whether 500 nM exceeds IC50 recorded for `COC(=O)[C@H](Cc1nnc2cc(-c3ccc(Nc4nc5ccc(Cl)cc5s4)cc3)ccn12)C(C)C` .
Ans: No

Q: State whether 500 nM exceeds IC50 recorded for `CC(C)[C@H](Cc1nnc2cc(-c3ccc(Nc4nc5ccc(Cl)cc5s4)cc3)ccn12)C(=O)O` .
Ans: Yes

Q: State whether 500 nM exceeds IC50 recorded for `O=C(O)[C@@H](Cc1nnc2cc(-c3ccc(Nc4nc5ccc(Cl)cc5s4)cc3)ccn12)CC1CCCCC1` .
Ans: No
